PARAMETER: melting point

[
  {
    "COMPOUND": "Cc1ccc(-c2cccc(-c3nc(C(C)C)[nH]c3-c3cccc(C)n3)c2)cc1",
    "RESULT": "76 to 79 °C"
  },
  {
    "COMPOUND": "Cc1cccc(-c2[nH]c(C(C)C)nc2-c2cccc(-c3ccc(C(N)=O)cn3)c2)n1",
    "RESULT": "138 to 144 °C"
  },
  {
    "COMPOUND": "Cc1cccc(-c2nc(N)sc2-c2cccc(-c3ccc(S(C)(=O)=O)cc3)c2)n1",
    "RESULT": "107 to 109 °C"
  },
  {
    "COMPOUND": "Cc1cccc(-c2[nH]c(C(C)C)nc2-c2ccc(F)c(-c3ccc(S(C)(=O)=O)cn3)c2)n1",
    "RESULT": "105 to 108 °C"
  },
  {
    "COMPOUND": "Cc1cccc(-c2[nH]c(C(C)C)nc2-c2ccc(F)c(-c3ccc(N4CCOCC4)cc3)c2)n1",
    "RESULT": "109 to 111 °C"
  },
  {
    "COMPOUND": "CCc1nc(-c2cc(-c3nc(C(C)C)[nH]c3-c3cccc(C)n3)ccc2F)c[nH]1",
    "RESULT": "170 to 175 °C"
  },
  {
    "COMPOUND": "Cc1cccc(-c2nc(C(C)C)[nH]c2-c2cccc(-c3ccc(S(N)(=O)=O)cc3)c2)n1",
    "RESULT": "255 to 258 °C"
  },
  {
    "COMPOUND": "Cc1cccc(-c2[nH]c(C(C)C)nc2-c2ccc(F)c(-c3cc[nH]c3)c2)n1",
    "RESULT": "106 to 110 °C"
  },
  {
    "COMPOUND": "Cc1cccc(-c2[nH]c(C(C)C)nc2-c2cccc(-c3ccc(S(=O)(=O)N4CCN(C)CC4)cc3)c2)n1",
    "RESULT": "110 to 116 °C"
  },
  {
    "COMPOUND": "Cc1cccc(-c2[nH]c(C(C)C)nc2-c2cccc(-c3ccc4c(c3)C(=O)CC[S+]4[O-])c2)n1 (stereo not shown)",
    "RESULT": "145 to 148 °C"
  },
  {
    "COMPOUND": "CS(=O)(=O)c1ccc(-c2cc(-c3c[nH]nc3-c3cccc(C4CC4)n3)ccc2F)cc1",
    "RESULT": "102 to 104 °C"
  },
  {
    "COMPOUND": "Cc1cccc(-c2[nH]c(C(C)C)nc2-c2cccc(-c3ccc(C)[nH]3)c2)n1",
    "RESULT": "128 to 130 °C"
  },
  {
    "COMPOUND": "Cc1cccc(-c2n[nH]cc2-c2ccc(F)c(-c3c[nH]c(CC(C)(C)O)n3)c2)n1",
    "RESULT": "136 to 140 °C"
  },
  {
    "COMPOUND": "Cc1cccc(-c2[nH]c(C(C)C)nc2-c2cccc(-c3ccc(S(=O)(=O)N4CCOCC4)cc3)c2)n1",
    "RESULT": "88 to 92 °C"
  },
  {
    "COMPOUND": "Cc1cccc(-c2n[nH]cc2-c2ccc(F)c(-c3ccc(S(N)(=O)=O)s3)c2)n1",
    "RESULT": "125 °C"
  },
  {
    "COMPOUND": "Cc1cccc(-c2n[nH]cc2-c2ccc(F)c(-c3cc[nH]c3)c2)n1",
    "RESULT": "162 to 164 °C"
  },
  {
    "COMPOUND": "Cc1cccc(-c2[nH]c(C(C)C)nc2-c2cccc(-c3cccc(S(N)(=O)=O)c3)c2)n1",
    "RESULT": "123 to 126 °C"
  },
  {
    "COMPOUND": "Cc1cccc(-c2n[nH]cc2-c2ccc(F)c(-c3ccc(C(C)(O)CF)cn3)c2)n1 (stereo not shown)",
    "RESULT": "174 to 176 °C"
  },
  {
    "COMPOUND": "Cc1cccc(-c2nc(C(C)C)[nH]c2-c2ccc(F)c(-c3ccco3)c2)n1",
    "RESULT": "78 to 90 °C"
  },
  {
    "COMPOUND": "NS(=O)(=O)c1ccc(-c2cc(-c3c[nH]nc3-c3ccccn3)ccc2F)cc1",
    "RESULT": "128 °C"
  },
  {
    "COMPOUND": "Cc1cccc(-c2n[nH]cc2-c2ccc(F)c(-c3c[nH]c(CCO)n3)c2)n1",
    "RESULT": "219 to 220 °C"
  },
  {
    "COMPOUND": "Cc1cccc(-c2[nH]c(C(C)C)nc2-c2ccc(F)c(-c3c[nH]cn3)c2)n1",
    "RESULT": "268 to 270 °C"
  },
  {
    "COMPOUND": "Cc1cccc(-c2[nH]c(C(C)C)nc2-c2ccc(F)c(-c3cc[nH]n3)c2)n1",
    "RESULT": "195 to 198 °C"
  },
  {
    "COMPOUND": "Cc1cccc(-c2[nH]c(C(C)C)nc2-c2ccc(F)c(-c3ccc(C(=O)NN4CCOCC4)cc3)c2)n1",
    "RESULT": "153 to 155 °C"
  },
  {
    "COMPOUND": "Cc1cccc(-c2n[nH]cc2-c2ccc(F)c(-c3ccc(S(C)(=O)=O)cc3)c2)n1",
    "RESULT": "100 to 102 °C"
  },
  {
    "COMPOUND": "Cc1cccc(-c2n[nH]cc2-c2ccc(F)c(-c3ccc4c(c3)CCS4(=O)=O)c2)n1",
    "RESULT": "107 to 109 °C"
  },
  {
    "COMPOUND": "Cc1cccc(-c2[nH]c(C(C)C)nc2-c2ccc(F)c(-c3ccc(S(C)(=O)=O)nc3)c2)n1",
    "RESULT": "102 to 105 °C"
  },
  {
    "COMPOUND": "Cc1cccc(-c2[nH]c(CC(C)C)nc2-c2cccc(-c3ccc(C(=O)NC4CCOCC4)cc3)c2)n1",
    "RESULT": "126 to 129 °C"
  },
  {
    "COMPOUND": "Cc1cccc(-c2n[nH]cc2-c2ccc(F)c(-c3ccc(CN4CCOCC4)cn3)c2)n1",
    "RESULT": "68 to 70 °C"
  },
  {
    "COMPOUND": "Cc1cccc(-c2[nH]c(C(C)C)nc2-c2cccc(-c3ccc(S(=O)(=O)N(C)C)cc3)c2)n1",
    "RESULT": "93 to 96 °C"
  },
  {
    "COMPOUND": "Cc1cccc(-c2[nH]c(C(C)C)nc2-c2ccc(F)c(-c3c[nH]c(C)n3)c2)n1",
    "RESULT": "230 to 234 °C"
  }
]
